// provenance: PubChem BioAssay (NCI)

Test system: A549/ATCC NSCLC
Experiment: NCI-60 one-dose screen, 48 h (100 = growth as untreated, 0 = no growth, -100 = all killed)
Conditions: 10 µM unless noted
This is part of a sample that, as a whole, favours compounds with a hit. Of some 83,000 tested, about 20% had one in any assay.
Measurement kind: growth (%)

INSERT INTO assay_data (molecule, measured_on, measurement_kind, unit_label, meas_value) VALUES
  ('NS(=O)(=O)c1ccc(-n2cc(CN3CCNCC3)nn2)cc1', 'A549/ATCC NSCLC', 'growth', '%', 110),
  ('O=C(CCC(=O)N1CCOCC1)OCCCCCCSc1ccc([N+](=O)[O-])c2nonc12', 'A549/ATCC NSCLC', 'growth', '%', 29.8),
  ('ClC(Cl)c1nc(-c2ccco2)n2nc(-c3ccccc3)cc2n1', 'A549/ATCC NSCLC', 'growth', '%', -2.21),
  ('C#C[C@]1(O)CC[C@H]2[C@@H]3CC=C4c5sc(-c6ccc7c(c6)OCO7)nc5CC[C@]4(C)[C@H]3CC[C@@]21C', 'A549/ATCC NSCLC', 'growth', '%', 6.31),
  ('CC(O)c1cc2ccccc2c(=O)o1 (centres undefined)', 'A549/ATCC NSCLC', 'growth', '%', 102),
  ('COc1ccc(Cn2cc3c(c2-c2cc(OC)c(OC)c(OC)c2)CCc2c(CN4CCOCC4)noc2-3)cc1', 'A549/ATCC NSCLC', 'growth', '%', 32.9),
  ('CC1(C)CC[C@]2(CN)CC[C@]3(C)C(=CC[C@@H]4[C@@]5(C)CCCNC(C)(C)[C@@H]5CC[C@]43C)[C@H]2C1', 'A549/ATCC NSCLC', 'growth', '%', 92.2),
  ('CNC(=O)c1cc(-c2ccc(NS(=O)(=O)c3ccc(C)cc3)cc2)nc2cccnc12', 'A549/ATCC NSCLC', 'growth', '%', 104),
  ('CCCC(=O)NC(c1cccnc1)c1cc(C(C)(C)C)c2cccnc2c1O (centres undefined)', 'A549/ATCC NSCLC', 'growth', '%', 18.2);
